Protocol Summary: Toxicity liver stage against HepG2, at 10uM
Assay type: cell-based
Parameters: test concentration 10 uM, cell line HepG2-A16-CD81EGFP
Run Parameters: human, HepG2-A16-CD81EGFP cells; read-out: INHIBITION
Measured Attribute: cytotoxicity at 10 µM (%)
Write the value in % as a bare number.

Provide one value: measured cytotoxicity at 10 µM of CCC(C)(NCc1nc(C)c(C)o1)c1nccs1 (stereo unspecified)
-2.05

Provide one value: measured cytotoxicity at 10 µM of CC(C)n1ccc(C(=O)N2CCCC(n3cncn3)C2)n1 (stereo unspecified)
-0.312

Provide one value: measured cytotoxicity at 10 µM of "O=C(c1ccc[nH]1)N1CCO[C@]2(CCC[C@@H]2COc2cccnc2)C1"
9.46

Provide one value: measured cytotoxicity at 10 µM of CC(=O)Nc1ccc(CN2CCCC(c3cc4ncccc4[nH]3)C2)cc1 (stereo unspecified)
0.99

Provide one value: measured cytotoxicity at 10 µM of "COCC(=O)N1CCC2(CC1)CN(c1cncnc1)C(=O)CO2"
-78.6

Provide one value: measured cytotoxicity at 10 µM of "Cc1nc2cc(OCc3nc(C(=O)NC(CO)CO)co3)ccc2s1"
4.01

Provide one value: measured cytotoxicity at 10 µM of O=C(O)c1cccnc1CN1CCCCC1CCc1cccc(O)c1 (stereo unspecified)
-1.84

Provide one value: measured cytotoxicity at 10 µM of "Nc1nonc1C(=O)N1Cc2ccccc2OC2(CCOCC2)C1"
-29.5

Provide one value: measured cytotoxicity at 10 µM of "CCc1ccccc1OCCN1CC[C@@]2(O)CCNC[C@H]2C1"
-160

Provide one value: measured cytotoxicity at 10 µM of "Cc1cc(CNC(=O)N2CCN(c3nc(C)c(C)s3)CC2)no1"
-1.01

Provide one value: measured cytotoxicity at 10 µM of "O=S(=O)(c1ccccc1)N1CC[C@]2(C[C@@H](OCC3CC3)CO2)C1"
-81.3

###

Protocol Summary: Toxicity liver stage against HepG2, at 10uM
Format: cell-based
Design: test concentration 10 uM, cell line HepG2-A16-CD81EGFP
Run Parameters: human, HepG2-A16-CD81EGFP cells; read-out: INHIBITION
Measured Attribute: cytotoxicity at 10 µM (%)
Write the value in % as a bare number.

compound=O=C(O)COc1ccc(Cl)cc1CN1CCC2(CCOCC2)CC1 experimental_result=-6.55
compound="CCC(C)N(C)CCNC(=O)c1ccccc1OCCOC (stereo unspecified)" experimental_result=0.386
compound=COc1cccc(CN2CCC3(CC2)CCN(c2ncc(F)cn2)C3)c1 experimental_result=1.42
compound=O=C(NCc1ccccc1)[C@H]1C[C@H]2CN(S(=O)(=O)C3CC3)C[C@@H]1O2 experimental_result=1.59
compound=CN1CCC(CNC(=O)Cc2ccc(N(C)C)cc2)CC1 experimental_result=6.8

Provide one value: measured cytotoxicity at 10 µM of CCC(CC)(CNC(=O)OC(C)(C)C)NC(=O)C1CCCO1 (stereo unspecified)
1.41

Provide one value: measured cytotoxicity at 10 µM of CN1CCOC(CNCc2csc(C3CCCCC3)n2)C1 (stereo unspecified)
-8.57

Provide one value: measured cytotoxicity at 10 µM of "Cc1cc(NC(=O)CN2CCn3c(nnc3C(C)C)C2)on1"
5.05

Provide one value: measured cytotoxicity at 10 µM of "CCOCCc1nc(Cc2ccccc2)n[nH]1"
7.9

Provide one value: measured cytotoxicity at 10 µM of "O=C(c1ccncn1)N1CCC[C@]2(C[C@@H](OCC3CC3)CO2)C1"
-78.9

Provide one value: measured cytotoxicity at 10 µM of "COCCN1C[C@@H]2[C@@H](OC)CCN(Cc3cccs3)[C@@H]2C1"
3.86
